target: rat H3R (Rattus norvegicus (Rat)); experiment: GTPγS functional assay, membranes from C6 cells expressing the rat H3R; assay type: biochemical; settings: 5 min; [35S]GTPγS bound as percentage of basal; read-out: Rat Maximum (%)
Sequence (Q9QYN8 whole entry): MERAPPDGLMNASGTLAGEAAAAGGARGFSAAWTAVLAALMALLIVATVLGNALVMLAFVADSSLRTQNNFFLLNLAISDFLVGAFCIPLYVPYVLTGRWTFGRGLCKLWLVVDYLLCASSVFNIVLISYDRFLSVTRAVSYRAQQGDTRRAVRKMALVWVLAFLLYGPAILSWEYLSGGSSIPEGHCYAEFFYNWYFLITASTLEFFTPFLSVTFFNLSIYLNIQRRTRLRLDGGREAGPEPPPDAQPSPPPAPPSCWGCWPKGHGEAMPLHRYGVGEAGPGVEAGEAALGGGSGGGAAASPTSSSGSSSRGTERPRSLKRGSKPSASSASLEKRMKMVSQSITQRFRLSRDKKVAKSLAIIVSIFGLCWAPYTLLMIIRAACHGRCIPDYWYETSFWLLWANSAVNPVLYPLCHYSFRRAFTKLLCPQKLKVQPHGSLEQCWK
Structures can show the parent of a compound that is named as a salt.
measured.parameter: Emax (%)

INSERT INTO measurements (compound, measured_parameter, recorded_value) VALUES
  ('Cl.Cl.Nc1nccc(N2CCC(N)CC2)n1 [Example 20, dihydrochloride]', 'Emax', 123),
  ('CN(C)CCNc1ccnc(N)n1 [Example 2, 2,2,2-trifluoroacetate]', 'Emax', 183),
  ('Nc1nccc(N2CCCN(Cc3ccccc3)CCC2)n1', 'Emax', 135),
  ('CN1CCN(c2ccnc(N)n2)CC1', 'Emax', 135),
  ('Nc1nccc(N2CCC3(CC2)CNC3)n1 [Example 23, trihydrochloride]', 'Emax', 126);
